The reported numbers originate from patent US12139520B2.

# target-or-system: hAM1R (human, UniProt Q16602)
# test-protocol: cell-based or functional assay
Bridge positions count the residues as written; N and C are the ends. Square brackets hold non-standard residues; d marks the D form. Ends that are not written are not given here. Hyp = O=C(O)[C@@H]1C[C@@H](O)CN1
Listed next: entries and their corresponding hAM1R EC50 (cAMP).
Numeric answer only, unit nM assumed.

Some binders with known hAM1R EC50 (cAMP) results, for comparison:
binder="GCRTGTCTVQRLAHQIYQFTDKFKDNVAPRSKISPQTA [SEQ ID NO: 241]" measurement=2290
binder="GCRTGTCTVQRLAHQIYQFTDKDKDNVAPRSKVGPNG[Hyp]-NH2 (disulfide 2-7 (inferred); ends not checked) [SEQ ID NO: 139]" measurement=2980
binder="GCRTGTCTVQRLAHQIYQFTDKFKDNVAPRSKISPQTP [SEQ ID NO: 235]" measurement=1420

Exercise: Please look up its hAM1R EC50 (cAMP): KCNFATCTVQRLAHQIYQFTDKDKDNVAPPTEVGSNGP [SEQ ID NO: 18]
Key: 817

Exercise: Now consider GCRFGTCTVQRLAHFLYQFTDKDKDNVAPRTKVGSNGY [SEQ ID NO: 117] .
Key: 51.6

Exercise: Now consider GCRFGTCTVQRLAHQIYQFTDKDKDNVAPRSKVSPQGY [SEQ ID NO: 174] .
Key: 133
